Tested on: L1210 leukemia ip in BDF1 mice, survival T/C
experiment_summary: NCI In Vivo Anticancer Drug Screen. Data for tumor model L1210 Leukemia (intraperitoneal) in B6D2F1 (BDF1) mice
measurement_conditions: endpoint: mean survival time; dose: 100.0 mg/kg/injection; schedule: Q01DX009 (ip); vehicle: Klucel (hydroxypropylcellulose) (HPC); higher = longer survival
Inconclusive results and toxic doses are left out.

# molecule, experimental_target, T/C
data = [
    ("CCSc1ccc2c(cc1=O)C(NC(=O)NC)CCc1cc(OC)c(OC)c(OC)c1-2 (stereo not given)", "L1210 leukemia ip in BDF1 mice, survival T/C", "92 % of control"),
    ("O=C(Nc1ccc(F)cc1)Oc1ccccn1", "L1210 leukemia ip in BDF1 mice, survival T/C", "95 % of control"),
    ("Cc1ccc(NC(=O)c2ccc(Cl)cc2)cc1", "L1210 leukemia ip in BDF1 mice, survival T/C", "95 % of control"),
    ("NN(c1ccccc1)c1ccc2ccccc2c1", "L1210 leukemia ip in BDF1 mice, survival T/C", "100 % of control"),
    ("CCc1cnccc1C", "L1210 leukemia ip in BDF1 mice, survival T/C", "111 % of control"),
    ("CC(C)c1ncc([N+](=O)[O-])n1C", "L1210 leukemia ip in BDF1 mice, survival T/C", "102 % of control"),
    ("CCCCCCCCc1cc(Cl)c(O)c(Cl)c1", "L1210 leukemia ip in BDF1 mice, survival T/C", "105 % of control"),
    ("O=S1(=O)N2CN3CCN(C2)CN1C3", "L1210 leukemia ip in BDF1 mice, survival T/C", "105 % of control"),
    ("O=C1OC(CN2CCOCC2)CN1/N=C/c1ccc([N+](=O)[O-])o1 (stereo not given)", "L1210 leukemia ip in BDF1 mice, survival T/C", "101 % of control"),
    ("CC(C)Cc1ccccn1", "L1210 leukemia ip in BDF1 mice, survival T/C", "91 % of control"),
    ("CSc1ccc(NC(=S)NCCc2ccccc2)cc1", "L1210 leukemia ip in BDF1 mice, survival T/C", "114 % of control"),
    ("CC12CC(C3(O)C(=O)Nc4ccccc43)C(=O)CC1CCC1C2CCC2(C)C(OC(=O)c3ccccc3)CCC12 (stereo not given)", "L1210 leukemia ip in BDF1 mice, survival T/C", "101 % of control"),
    ("COc1cc(/C=c2\\[nH]c(=O)/c(=C/c3cc(OC)c(OC)c(OC)c3)[nH]c2=O)cc(OC)c1OC", "L1210 leukemia ip in BDF1 mice, survival T/C", "86 % of control"),
    ("Cc1cc(C)c(NC(=O)c2ccco2)cc1C", "L1210 leukemia ip in BDF1 mice, survival T/C", "105 % of control"),
    ("Cc1cccc(NC(=O)Oc2ccc(Nc3ccccc3)cc2)c1", "L1210 leukemia ip in BDF1 mice, survival T/C", "96 % of control"),
    ("COc1cc(CC(=O)O)c([N+](=O)[O-])cc1OC", "L1210 leukemia ip in BDF1 mice, survival T/C", "114 % of control"),
    ("c1ccc(CNCc2ccccc2)cc1", "L1210 leukemia ip in BDF1 mice, survival T/C", "93 % of control"),
    ("CN(C)c1ccc(C=Nc2ccc(S(N)(=O)=O)cc2)cc1", "L1210 leukemia ip in BDF1 mice, survival T/C", "100 % of control"),
    ("O=C1C(C(Cl)c2ccccc2)SC(c2ccccc2)N1c1ccccc1 (stereo not given)", "L1210 leukemia ip in BDF1 mice, survival T/C", "95 % of control"),
    ("CCCCCCCCCCCC(=O)Nc1cc(Cl)c(OC)cc1OC", "L1210 leukemia ip in BDF1 mice, survival T/C", "95 % of control"),
    ("COc1cccc(C(=NC(=O)c2ccccc2)c2ccccc2)c1", "L1210 leukemia ip in BDF1 mice, survival T/C", "100 % of control"),
    ("C=CC(C)(O)CCC1C(=C)CCC2C(C)(C)CCCC12C (stereo not given)", "L1210 leukemia ip in BDF1 mice, survival T/C", "100 % of control"),
    ("Cc1ccc(NC(=S)N(C)C)cc1Cl", "L1210 leukemia ip in BDF1 mice, survival T/C", "97 % of control"),
    ("CCNC(C)(C)C(Cl)c1ccc(Cl)s1 (stereo not given)", "L1210 leukemia ip in BDF1 mice, survival T/C", "90 % of control"),
    ("O=C(Nc1ccc2ccccc2c1)c1ccc(F)cc1", "L1210 leukemia ip in BDF1 mice, survival T/C", "97 % of control"),
    ("C=COC1CCCCC1", "L1210 leukemia ip in BDF1 mice, survival T/C", "101 % of control"),
    ("COC(=O)CCNCc1ccccc1", "L1210 leukemia ip in BDF1 mice, survival T/C", "103 % of control"),
    ("O=C(/C=C/C(=O)Oc1c(Cl)cc(Cl)cc1Cl)Oc1c(Cl)cc(Cl)cc1Cl", "L1210 leukemia ip in BDF1 mice, survival T/C", "106 % of control"),
    ("CCCOc1ccc(-c2nc(-c3ccc(N=Cc4ccc(N(CCOS(C)(=O)=O)CCOS(C)(=O)=O)cc4Cl)cc3)cs2)cc1", "L1210 leukemia ip in BDF1 mice, survival T/C", "100 % of control"),
    ("CCOC(OCC)c1cc(=O)[nH]c(NC(C)=O)n1", "L1210 leukemia ip in BDF1 mice, survival T/C", "101 % of control"),
    ("CCC(=O)Nc1cc(C(C)C)ccc1C", "L1210 leukemia ip in BDF1 mice, survival T/C", "107 % of control"),
    ("CC(C)(C)NC(=O)NCc1ccc(Cl)c(Cl)c1", "L1210 leukemia ip in BDF1 mice, survival T/C", "92 % of control"),
    ("O=C(CI)Nc1ccc(Cl)c(Cl)c1", "L1210 leukemia ip in BDF1 mice, survival T/C", "93 % of control"),
    ("Cc1ccc(C(C)C)c(Oc2cc(C)ccc2C(C)C)c1", "L1210 leukemia ip in BDF1 mice, survival T/C", "98 % of control"),
    ("COc1ccc(NC(=O)Oc2ccccc2Cc2ccccc2)cc1", "L1210 leukemia ip in BDF1 mice, survival T/C", "94 % of control"),
    ("O=S(=O)(Cc1ccccc1)Nc1cccc(S(=O)(=O)OCc2ccccc2)c1", "L1210 leukemia ip in BDF1 mice, survival T/C", "104 % of control"),
    ("Cc1cccc(C)c1NC(=O)Oc1ccc(C2CCCCC2)cc1", "L1210 leukemia ip in BDF1 mice, survival T/C", "101 % of control"),
    ("Nc1c(Br)cc(Br)c(C(=O)O)c1Br", "L1210 leukemia ip in BDF1 mice, survival T/C", "101 % of control"),
    ("CC(=O)OCCN1C(=O)CN=C(c2ccccn2)c2cc(Cl)ccc21", "L1210 leukemia ip in BDF1 mice, survival T/C", "99 % of control"),
    ("CS(=O)(=O)Cc1ccccc1", "L1210 leukemia ip in BDF1 mice, survival T/C", "101 % of control"),
]
